Give measured IC50 for each item. Keep answers brief.
Biological target: protein-protein interaction between Kras and SOS1 (biotin-tagged human Kras loaded with GDP, His-tagged human SOS1) (Homo sapiens (Human), UniProt P01116, G12D)
Assay: Protein-protein interaction inhibition between Kras and SOS1 (KrasG12D-SOS PPI) using AlphaScreen
Type: biochemical
Conditions: AlphaScreen; biotin-tagged human Kras loaded with GDP, His-tagged human SOS1; read-out: KRAS G12D-SOS PPI IC50
Numbered stars: 1 amine (or outer) side, 2 acyl side, 3 side chain; on linkers, the order of the positions; unused ones are H or OH. Bridge positions count the residues as written; N and C are the ends. Square brackets hold non-standard residues; d marks the D form. Peptide text beside a SMILES is read from it. * marks the point of attachment. hPhe(3,5-F2-4-CF3) = N[C@@H](CCc1cc(F)c(C(F)(F)F)c(F)c1)C(=O)O; hPhe(3-Cl-4-CF3) = N[C@@H](CCc1ccc(C(F)(F)F)c(Cl)c1)C(=O)O; hPhe(3-F,4-CF3) = N[C@@H](CCc1ccc(C(F)(F)F)c(F)c1)C(=O)O; NEtPhe(4-CF3) = CCN[C@@H](Cc1ccc(C(F)(F)F)cc1)C(=O)O; NMePhe(4-CF3) = CN[C@@H](Cc1ccc(C(F)(F)F)cc1)C(=O)O; hPhe(4-CF3) = N[C@@H](CCc1ccc(C(F)(F)F)cc1)C(=O)O; Pro(cis-4-Ph) = O=C(O)[C@@H]1C[C@H](c2ccccc2)CN1; NMePhe(4-Cl) = CN[C@@H](Cc1ccc(Cl)cc1)C(=O)O; NMedβ3hAla = C[C@H](CC(=O)[*:2])N(C)[*:1]; NMeGly(cPent) = CN[C@H](C(=O)O)C1CCCC1; NMeCha = CN[C@@H](CC1CCCCC1)C(=O)O; cisHyp = O=C(O)[C@@H]1C[C@H](O)CN1; NMeChg = CN[C@H](C(=O)O)C1CCCCC1; NMeF = CN[C@@H](Cc1ccccc1)C(=O)O; NMeI = CC[C@H](C)[C@H](NC)C(=O)O; NMeD = CN[C@@H](CC(=O)O)C(=O)O; NMeL = CN[C@@H](CC(C)C)C(=O)O; d(β3hA) = C[C@@H](N)CC(=O)O; NMeA = CN[C@@H](C)C(=O)O; Piperidide = C1CCN(*)CC1; Pyrrolidide = C1CCN(*)C1; Ac5c = NC1(C(=O)O)CCCC1; Aze = O=C(O)[C@@H]1CCN1; Sar = CNCC(=O)O
Number only, in nM; omit the unit.

Prompt: Data request, read-out IC50, for CC[C@H](C)[C@@H]1NC(=O)[C@H](CC(C)C)N(C)C(=O)C[C@@H](C(=O)N2CCCCC2)N(C)C(=O)[C@H](C2CCCCC2)N(C)C(=O)C2(CCCC2)NC(=O)[C@@H]2C[C@H](c3ccccc3)CN2C(=O)[C@H](CCc2ccc(C(F)(F)F)c(Cl)c2)NC(=O)CN(C)C(=O)[C@H](CC2CCCCC2)N(C)C(=O)CN(C)C(=O)CN(C)C1=O [Compound 428] ([NMeL]I[Sar][Sar][NMeCha][Sar][hPhe(3-Cl-4-CF3)][Pro(cis-4-Ph)][Ac5c][NMeChg][NMeD]-Piperidide; lactam N-11)
Completion: 9.1

Prompt: Data request, read-out IC50, for CC[C@H](C)[C@@H]1NC(=O)[C@H](C)N(C)C(=O)C[C@@H](C)NC(=O)[C@H](CC(C)C)N(C)C(=O)[C@H](Cc2ccccc2)N(C)C(=O)[C@@H]2C[C@H](O)CN2C(=O)[C@H](CCc2ccc(C(F)(F)F)cc2)NC(=O)CN(C)C(=O)[C@H](Cc2ccc(Cl)cc2)N(C)C(=O)CN(C)C(=O)CN(C)C1=O [Compound 1373] (cyclo(I[Sar][Sar][NMePhe(4-Cl)][Sar][hPhe(4-CF3)][cisHyp][NMeF][NMeL][d(β3hA)][NMeA]))
Completion: 7.7

Prompt: Data request, read-out IC50, for CC[C@H](C)[C@@H]1NC(=O)[C@H](CC(C)C)N(C)C(=O)C[C@@H](C)N(C)C(=O)[C@H](C2CCCC2)N(C)C(=O)C2(CCCC2)NC(=O)[C@@H]2CCCN2C(=O)[C@H](CCc2ccc(C(F)(F)F)c(F)c2)NC(=O)CN(C)C(=O)[C@H](CC2CCCCC2)N(C)C(=O)[C@@H]2CCN2C(=O)[C@H](C)N(C)C1=O [Compound 49] (cyclo([Ac5c][NMeGly(cPent)][NMedβ3hAla][NMeL]I[NMeA][Aze][NMeCha][Sar][hPhe(3-F,4-CF3)]P))
Completion: 12

Prompt: Data request, read-out IC50, for CC[C@H](C)[C@@H]1NC(=O)[C@H](CC(C)C)N(C)C(=O)C[C@@H](C)N(C)C(=O)[C@H]([C@@H](C)CC)N(C)C(=O)C2(CCCC2)NC(=O)[C@@H]2CCCN2C(=O)[C@H](CCc2cc(F)c(C(F)(F)F)c(F)c2)NC(=O)CN(C)C(=O)[C@H](Cc2ccc(C(F)(F)F)cc2)N(C)C(=O)[C@@H]2CCN2C(=O)[C@H](C)N(C)C1=O [Compound 907] (cyclo([Ac5c][NMeI][NMedβ3hAla][NMeL]I[NMeA][Aze][NMePhe(4-CF3)][Sar][hPhe(3,5-F2-4-CF3)]P))
Completion: 1.4

Prompt: Data request, read-out IC50, for CC[C@H](C)[C@@H]1NC(=O)[C@H](CC(C)C)N(C)C(=O)C[C@@H](C(=O)N2CCCC2)N(C)C(=O)[C@H]([C@@H](C)CC)N(C)C(=O)C2(CCCC2)NC(=O)[C@@H]2CCCN2C(=O)[C@H](CCc2ccc(C(F)(F)F)c(Cl)c2)NC(=O)CN(C)C(=O)[C@H](Cc2ccc(C(F)(F)F)cc2)N(CC)C(=O)[C@@H]2CCN2C(=O)[C@H](C)N(C)C1=O [Compound 1319] ([NMeL]I[NMeA][Aze][NEtPhe(4-CF3)][Sar][hPhe(3-Cl-4-CF3)]P[Ac5c][NMeI][NMeD]-Pyrrolidide; lactam N-11)
Completion: 0.82

====

Target: protein-protein interaction between Kras and SOS1 (biotin-tagged human Kras loaded with GDP, His-tagged human SOS1) (Homo sapiens (Human), UniProt P01116, G12D)
Assay: Protein-protein interaction inhibition between Kras and SOS1 (KrasG12D-SOS PPI) using AlphaScreen;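 further: kras produced in E. coli, Ni-coupled donor beads and streptavidin acceptor beads, excitation 680 nm with emission detected at 520–620 nm via singlet oxygen transfer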
Type: biochemical
Settings: AlphaScreen; biotin-tagged human Kras loaded with GDP, His-tagged human SOS1; read-out: KRAS G12D-SOS PPI IC50
Bridge positions count the residues as written; N and C are the ends. Square brackets hold non-standard residues; d marks the D form. Peptide text beside a SMILES is read from it. * marks the point of attachment. hPhe(3-Cl-4-CF3) = N[C@@H](CCc1ccc(C(F)(F)F)c(Cl)c1)C(=O)O; NMePhe(4-CF3) = CN[C@@H](Cc1ccc(C(F)(F)F)cc1)C(=O)O; NEtPhe(2-Cl) = CCN[C@@H](Cc1ccccc1Cl)C(=O)O; NMePhe(4-Me) = CN[C@@H](Cc1ccc(C)cc1)C(=O)O; Pro(4,4-F2) = O=C(O)[C@@H]1CC(F)(F)CN1; NMeI = CC[C@H](C)[C@H](NC)C(=O)O; NMeD = CN[C@@H](CC(=O)O)C(=O)O; NMeL = CN[C@@H](CC(C)C)C(=O)O; NMeA = CN[C@@H](C)C(=O)O; Pyrrolidide = C1CCN(*)C1; Ac5c = NC1(C(=O)O)CCCC1; Aze = O=C(O)[C@@H]1CCN1; Sar = CNCC(=O)O
Value Type: IC50 (nM)
Number only, in nM; omit the unit.

Prompt: Data request, read-out IC50, for CC[C@H](C)[C@@H]1NC(=O)[C@H](CC(C)C)N(C)C(=O)C[C@@H](C(=O)N(C)C)N(C)C(=O)[C@H]([C@@H](C)CC)N(C)C(=O)C2(CCCC2)NC(=O)[C@H](Cc2ccccc2Cl)N(CC)C(=O)[C@H](CCc2ccc(C(F)(F)F)c(Cl)c2)NC(=O)CN(C)C(=O)[C@H](Cc2ccc(C)cc2)N(C)C(=O)[C@@H]2CCN2C(=O)[C@H](C)N(C)C1=O [Compound 2165] ([NMeL]I[NMeA][Aze][NMePhe(4-Me)][Sar][hPhe(3-Cl-4-CF3)][NEtPhe(2-Cl)][Ac5c][NMeI][NMeD]-NMe2; lactam N-11)
Completion: 220

Prompt: Data request, read-out IC50, for CC[C@H](C)[C@@H]1NC(=O)[C@H](CC(C)C)N(C)C(=O)C[C@@H](C(=O)N2CCCC2)N(C)C(=O)[C@H]([C@@H](C)CC)N(C)C(=O)C2(CCCC2)NC(=O)[C@@H]2CC(F)(F)CN2C(=O)[C@H](CCc2ccc(C(F)(F)F)c(Cl)c2)NC(=O)CN(C)C(=O)[C@H](Cc2ccc(C(F)(F)F)cc2)N(C)C(=O)[C@@H]2CCN2C(=O)[C@H](C)N(C)C1=O [Compound 1242] ([NMeL]I[NMeA][Aze][NMePhe(4-CF3)][Sar][hPhe(3-Cl-4-CF3)][Pro(4,4-F2)][Ac5c][NMeI][NMeD]-Pyrrolidide; lactam N-11)
Completion: 0.52
